- Test system: Digitaria sanguinalis (DIGSA)
- Method description: Post-emergence efficacy, glasshouse, evaluated after 13 days
- Type: in vivo
- Condition summary: Digitaria sanguinalis, 312 h; post-emergence application, 500 g/Ha, evaluated after 13 days; read-out: Control of weed species DIGSA (100=total damage to plant; 0=no damage to plant)
Simple rule here: pest or weed control at 500 g/ha less than 90% is 1, otherwise -1.

(Q) Please check: pest or weed control at 500 g/ha for CCNC(=O)c1cc[n+](CC[C@H](N)C(=O)O)nc1 [Compound A91] , strictly under 90% or not?
(A) 1

(Q) Report whether reported pest or weed control at 500 g/ha is lower than 90% (strictly) for CNC(=O)c1cn[n+](CCC(=O)O)cc1C [Compound A53]
(A) 1

(Q) In plain terms, does O=C(O)CC[n+]1ccc(C(=O)Nc2nccs2)cn1 [Compound A102] come in under 90% for pest or weed control at 500 g/ha?
(A) 1

(Q) For this compound, is pest or weed control at 500 g/ha lower than 90%? CCNC(=O)c1cc[n+](CC(=O)OC)nc1 [Compound A89]
(A) 1

(Q) Item COCCNC(=O)c1cc[n+](CCC(=O)O)nc1 [Compound A40] : pest or weed control at 500 g/ha beneath 90%, strictly?
(A) -1

(Q) hey, is pest or weed control at 500 g/ha for O=C(NCC1CC1)c1cc[n+](CCS(=O)(=O)[O-])nc1 [Compound A25] lower than 90% or not?
(A) 1

(Q) Determine whether this compound shows pest or weed control at 500 g/ha lower than 90% (ties excluded): CNC(=O)c1cn[n+](CCS(=O)(=O)[O-])cc1-c1ccccc1 [Compound A39]
(A) 1

(Q) Given the entry CC1(C)CC(NC(=O)c2cc[n+](CCC(=O)O)nc2)=NO1 [Compound A131] , would its reported pest or weed control at 500 g/ha be below 90%?
(A) 1

(Q) Answer whether the compound O=C(O)CC[n+]1ccc(C(=O)NC2CS(=O)(=O)C2)cn1 [Compound A67] has pest or weed control at 500 g/ha strictly less than 90%
(A) -1

(Q) Check if pest or weed control at 500 g/ha falls below 90% for CN(C)C(=O)c1cn[n+](CCS(=O)(=O)O)cc1-c1ccccc1 [Compound A64] .
(A) 1

(Q) Please determine if N#CCNC(=O)c1cc[n+](CCC(=O)O)nc1 [Compound A90] is below 90% in terms of pest or weed control at 500 g/ha.
(A) -1

(Q) In plain terms, does CCC1(NC(=O)c2cc[n+](CCC(=O)O)nc2)CC1 [Compound A134] come in under 90% for pest or weed control at 500 g/ha?
(A) -1

(Q) Quick check: pest or weed control at 500 g/ha of CCNC(=O)c1cc[n+](CC(C)C(=O)O)nc1 (stereo not shown) [Compound A60] under 90%?
(A) -1

----------
Assign pest or weed control at 500 g/ha to each entry below.
- System: Echinochloa crus-galli (ECHCG)
- Method description: Post-emergence efficacy, glasshouse, evaluated after 13 days
- Assay type: in vivo
- Condition summary: Echinochloa crus-galli, 312 h; post-emergence application, 500 g/Ha, evaluated after 13 days; read-out: Control of weed species ECHCG (100=total damage to plant; 0=no damage to plant)
# number only, unit % dropped from output

Reported pest or weed control at 500 g/ha for `O=C(c1cc[n+](CCS(=O)(=O)[O-])nc1)N1CCOCC1` was 50

Sample `CC(C)N(C(=O)c1cc[n+](CCS(=O)(=O)O)nc1)C(C)C` ; pest or weed control at 500 g/ha observed: 10

Value of pest or weed control at 500 g/ha reported for the compound CC(CO)NC(=O)c1cc[n+](CCC(=O)O)nc1 (stereo not drawn) is 90

For this compound ( `C=CCNC(=O)c1cc[n+](CCCOS(=O)(=O)[O-])nc1` ), measured pest or weed control at 500 g/ha is 70

The compound identified as `COC(=O)CC[n+]1ccc(C(=O)N(C)C)cn1` registered its pest or weed control at 500 g/ha at 30

So for `CC(C)(CO)NC(=O)c1cc[n+](CCC(=O)O)nc1` , the logged pest or weed control at 500 g/ha turned out to be 60

Record `O=C(O)CC[n+]1ccc(C(=O)N2CCS(=O)(=O)CC2)cn1` . Reported pest or weed control at 500 g/ha: 70

GET /value?item= `O=C(O)CC[n+]1ccc(C(=O)NC2(C(F)(F)F)CC2)cn1` &field=pest or weed control at 500 g/ha returns 80

Given item `C#CCNC(=O)c1cc[n+](CCNS(=O)(=O)[O-])nc1` , the value recorded as its pest or weed control at 500 g/ha is 40
